Reference for the values: patent US9169254B2

- tgt: UniProt Q03431
- Sequence (Q03431 27-593): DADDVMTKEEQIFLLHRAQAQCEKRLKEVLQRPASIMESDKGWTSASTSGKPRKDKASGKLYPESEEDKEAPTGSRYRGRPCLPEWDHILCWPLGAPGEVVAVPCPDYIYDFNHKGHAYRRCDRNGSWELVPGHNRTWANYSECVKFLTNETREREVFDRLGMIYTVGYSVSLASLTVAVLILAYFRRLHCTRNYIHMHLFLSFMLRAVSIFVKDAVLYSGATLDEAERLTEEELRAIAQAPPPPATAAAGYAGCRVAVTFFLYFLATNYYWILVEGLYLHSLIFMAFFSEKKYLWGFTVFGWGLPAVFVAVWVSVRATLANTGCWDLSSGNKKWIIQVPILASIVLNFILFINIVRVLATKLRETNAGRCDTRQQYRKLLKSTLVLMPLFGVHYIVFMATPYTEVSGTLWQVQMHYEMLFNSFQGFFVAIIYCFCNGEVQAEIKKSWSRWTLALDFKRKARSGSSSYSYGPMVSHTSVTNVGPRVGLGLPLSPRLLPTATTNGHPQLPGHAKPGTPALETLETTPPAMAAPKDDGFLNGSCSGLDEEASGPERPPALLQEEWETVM
- protocol: In vitro cAMP signal activity in HKRK-B7 cells (LLC-PK1 cells overexpressing the human PTH1 receptor)
- Format: cell-based
- testSettings: HKRK-B7 cells; compound at 1×10^−3 M; cAMP produced as percentage of that produced by hPTH(1-34) at 100 nM
Please use satisfied whenever cAMP production activity (%) is not below 60%, and not satisfied whenever it is.

compound	tgt	answerLabel
O=C1NC(C2CCCCC2)=NC12CCN(S(=O)(=O)/C=C/c1ccc(CCO)cc1)CC2 [Compound 187]	UniProt Q03431	not satisfied

Exam item: decide whether the reported cAMP production activity (%) for Cc1cc(N(C)C(N)=O)cc(C)c1/C=C/[S@TB3](=O)(=O)N1CCC2(CC1)N=C(CCCC/C=C/c1ccccc1)NC2=O [Compound 1120] is at least 60%. satisfied

I'd appreciate it if you could say whether Cc1cc(NC(=O)[C@@H](N)CO)ccc1CCS(=O)(=O)N1CCC2(CC1)N=C(c1cccc(C(F)(F)F)c1)NC2=O [Compound 886] has cAMP production activity (%) at least equal to 60%. satisfied

Given COCCN(C(C)=O)c1cc(C)c(/C=C/S(=O)(=O)N2CCC3(CC2)N=C(C2CCC(C)CC2)NC3=O)c(C)c1 (centres unmarked) [Compound 514] , state whether its cAMP production activity (%) is at least 60%. satisfied

Dear colleague, could you confirm whether Cc1cc(C(=O)N(C)C)ccc1/C=C/S(=O)(=O)N1CCC2(CC1)N=C(c1cccc(OC(F)(F)F)c1)NC2=O [Compound 231] has cAMP production activity (%) at or above 60%? satisfied

Check this compound for cAMP production activity (%) at or above 60%: O=C1NC(C2CCCCC2)=NC12CCN(S(=O)(=O)c1cccc(Cl)c1)C2 (centres unmarked) [Compound 72] not satisfied

Does the reported cAMP production activity (%) for CCC[C@@H]1CCC[C@H](C2=NC3(CCN(S(=O)(=O)CCc4ccc(NC(C)=O)cc4C)CC3)C(=O)N2)C1 [Compound 923] fall at or above the 60% mark? satisfied

Is the recorded value of cAMP production activity (%) equal to or greater than 60% for this compound? Cc1cc(C(=O)N2CCC(OC[C@H](O)CO)CC2)cc(C)c1CCS(=O)(=O)N1CCC2(CC1)N=C(C1CCC(CCC(F)(F)F)CC1)NC2=O (some centres unmarked) [Compound 1384] satisfied

Entry Cc1ccccc1CCS(=O)(=O)N1CCC2(CC1)N=C(C1CCCCC1)NC2=O [Compound 277] : is its cAMP production activity (%) no less than 60%? not satisfied

Quick check: does Cc1cc(C(=O)N2CC(F)C2)cc(C)c1/C=C/S(=O)(=O)N1CCC2(CC1)N=C(c1cccc(OC(F)(F)F)c1)NC2=O [Compound 963] have cAMP production activity (%) greater than or equal to 60%? not satisfied

Is the recorded value of cAMP production activity (%) equal to or greater than 60% for this compound? O=C1NC(C2CCCCC2)=NC12CCN(S(=O)(=O)CCc1cccc3[nH]ccc13)CC2 [Compound 303] satisfied

Does the compound COc1ccccc1/C=C/S(=O)(=O)N1CCC2(CC1)N=C(C1CCCCC1)NC2=O [Compound 181] have recorded cAMP production activity (%) that is 60% or more? not satisfied

Check the entry O=C1NC(C2CCCCC2)=NC12CCN(S(=O)(=O)CCc1csc3ccccc13)CC2 [Compound 319] : does cAMP production activity (%) equal or exceed 60%? not satisfied
